target: Leucine aminopeptidase (Plasmodium falciparum (isolate 3D7)); experiment: P. falciparum M17LAP inhibitors, primary screen, biochemical, fluorogenic H-Leu-NHMec substrate, 1536-well (AID 1619); details: recombinant M17LAP, H-Leu-NHMec fluorogenic kinetic assay; at 30 µM; hits give high values;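 further: plate controls were full reaction with DMSO carrier for no effect and no enzyme background for full effect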
Among all 220,000 compounds or so, about 830 (0.38%) were called active. Only a sample is shown. Potency and affinity values are given separately.
Decision: inhibition >= 10% yields Condition met, all other cases yield Condition not met.

Compound | Classification
N#Cc1c(NC(=O)CSC2=NCCS2)sc2c1CCCC2 | Condition met
Cc1nnc(SCC(=O)Nc2sc3c(c2C#N)CCCC3)[nH]c1=O | Condition met
N#Cc1c(NC(=O)CSc2ncn(-c3ccccc3)n2)sc2c1CCCC2 | Condition not met
N#Cc1c(NC(=O)CSc2nc(N)cc(=O)[nH]2)sc2c1CCCCCC2 | Condition not met
Cn1cnnc1SCC(=O)Nc1sc2c(c1C#N)CCCCC2 | Condition met
Cc1nn(C(C)C(=O)NC2C(=O)N3C(C(=O)O)=C(CSc4nnnn4C)CSC23)cc1Cl (stereo unspecified) | Condition met
CC1(C(=O)OCC(=O)Nc2ccccc2)CC1(Cl)Cl (stereo unspecified) | Condition not met
Cc1cc(C)nc(/N=C(\NC(=O)C(C)(C)C)Nc2ccc(F)cc2)n1 | Condition met
CC1CCC2(CC1)NC(=O)N(CC(=O)Nc1ccc3c(c1)CCC3)C2=O (stereo unspecified) | Condition not met
Cn1nnnc1SCC1=C(C(=O)O)N2C(=O)C(NC(=O)C3CC3c3ccccc3)C2SC1 (stereo unspecified) | Condition met
O=C(CN1C(=O)CSc2ccccc21)Nc1ccc2c(c1)OCCO2 | Condition met

====

molecular target: Leucine aminopeptidase (Plasmodium falciparum (isolate 3D7)); assay: P. falciparum M17LAP inhibitors, primary screen, biochemical, fluorogenic H-Leu-NHMec substrate, 1536-well (AID 1619); conditions: recombinant M17LAP, H-Leu-NHMec fluorogenic kinetic assay; at 30 µM; hits give high values;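 further: plate controls were full reaction with DMSO carrier for no effect and no enzyme background for full effect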
In all, about 220,000 compounds went through this assay and about 830 (0.38%) were called active. These entries were drawn from the full list. Measured potencies and affinities stand elsewhere.
Each entry below lists one item and its recorded inhibition value.
Property Measured: inhibition (%)

Compound | Property Measured | Unit Of Measurement | Assay Result
CC1=NNC(=O)C1CCC(=O)N/N=C/c1ccccc1 (stereo not drawn) | inhibition | % | -4.86
CCCCCC(=O)N/N=C/c1ccccc1[N+](=O)[O-] | inhibition | % | 36.9
CCNC(=O)NCc1c(C)c(C)n(Cc2ccccc2)c1-n1cccc1 | inhibition | % | 4.1
Cc1cc(N2CCCC2)ccc1/C=C1\NC(=S)N(C)C1=O | inhibition | % | -1.37
Cc1ccc2ccccc2[n+]1CCCS(=O)(=O)[O-] | inhibition | % | 7.83
Cc1ccc(NC(=O)C(CC(C)C)NC(=O)C2CCC(C)CC2)nc1 (stereo not drawn) | inhibition | % | -1.65
CC(C)(C)c1ccc(C(=O)C2CCCN(C(=O)C3CCOCC3)C2)cc1 (stereo not drawn) | inhibition | % | -15.1
O=C1CC(CC(=O)N/N=C/c2ccccc2[N+](=O)[O-])=NN1 | inhibition | % | 56.8
CN(C)S(=O)(=O)c1cccc(NC(=S)NCCCn2ccnc2)c1 | inhibition | % | 2.61
CCc1ccc(C(=O)CSc2nc3cc(S(=O)(=O)N4CCOCC4)ccc3n2CC)cc1 | inhibition | % | 16.6
CC1=NNC(=O)C1CCC(=O)N/N=C/c1ccc(Cl)cc1Cl (stereo not drawn) | inhibition | % | 11.1
O=C(N1CCCCC1)N1CCCN(C(=O)N2CCCCC2)CC1 | inhibition | % | 7.89
COc1cccc(OCCCCN2CC(C)OC(C)C2)c1 (stereo not drawn) | inhibition | % | 8.69
O=S(=O)(c1cccs1)N1CN(Cc2ccccc2)c2nc3ccccc3nc21 | inhibition | % | -4.62
Cc1ccccc1S(=O)(=O)Nc1nc2ccccc2nc1N1CCOCC1 | inhibition | % | 16.6
O=C(CSc1nnc(-c2ccc(O)cc2)n1Cc1ccco1)c1ccccc1 | inhibition | % | 5.35
O=C(NC(Cc1ccccc1)C(=O)NC1CC1)OCc1ccccc1 (stereo not drawn) | inhibition | % | 9.99
COc1cc(/C=N/N2C(=O)c3ccccc3C2=O)ccc1O | inhibition | % | 10.3
COc1cc2c(cc1OC)C1(Nc3c-2c(-c2ccccc2)nn3-c2ccccc2)C(=O)Nc2ccccc21 (stereo not drawn) | inhibition | % | 0.95
CC1=NNC(=O)C1CCC(=O)N/N=C/c1c(Cl)cccc1Cl (stereo not drawn) | inhibition | % | -1.12
Cc1cc(N2CCCC2)ccc1/C=C1/C(=O)N(C)C(=S)N1C | inhibition | % | 1.26
CC(=O)Nc1ccccc1N(CC(O)Cn1c2ccccc2c2ccccc21)S(=O)(=O)c1ccc(C)cc1 (stereo not drawn) | inhibition | % | 11.1
CC1=NNC(=O)C1CCC(=O)N/N=C/c1ccc(C)cc1 (stereo not drawn) | inhibition | % | 5.32

====

Catalogue of compounds with associated inhibition
biological target: Leucine aminopeptidase (Plasmodium falciparum (isolate 3D7)); assay: P. falciparum M17LAP inhibitors, primary screen, biochemical, fluorogenic H-Leu-NHMec substrate, 1536-well (AID 1619); conditions: recombinant M17LAP, H-Leu-NHMec fluorogenic kinetic assay; at 30 µM; hits give high values;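 further: plate controls were full reaction with DMSO carrier for no effect and no enzyme background for full effect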
The whole screen tested about 220,000 compounds, of which about 830 (0.38%) were called active. Only a sample is shown. Results with a measured potency or affinity are listed apart.

Sample Smiles | System Tested | Unit Of Measurement | inhibition
CCOc1ccc(Nc2nc(Cc3nnc(SCC(N)=O)o3)cs2)cc1 | Leucine aminopeptidase (Plasmodium falciparum (isolate 3D7)) | % | 27.7
CCOc1ccc(Nc2nc(Cc3nnc(SCC(=O)c4ccc(C)cc4)o3)cs2)cc1 | Leucine aminopeptidase (Plasmodium falciparum (isolate 3D7)) | % | 27.5
Cc1ccc(NC(=O)CN2C(=O)N/C(=C/c3ccc(C)o3)C2=O)cc1 | Leucine aminopeptidase (Plasmodium falciparum (isolate 3D7)) | % | 71.1
CCn1c(CNc2nc(-c3ccccc3)cs2)nnc1SCC(=O)NCc1ccco1 | Leucine aminopeptidase (Plasmodium falciparum (isolate 3D7)) | % | -5.1
Cc1ccc(NC(=O)CN2C(=O)N/C(=C/c3ccc(C)s3)C2=O)cc1 | Leucine aminopeptidase (Plasmodium falciparum (isolate 3D7)) | % | -4
CCn1c(COc2ccc(C)cc2)nnc1SCC(=O)NCc1ccco1 | Leucine aminopeptidase (Plasmodium falciparum (isolate 3D7)) | % | 6.34

====

target: Leucine aminopeptidase (Plasmodium falciparum (isolate 3D7)); experiment: P. falciparum M17LAP inhibitors, primary screen, biochemical, fluorogenic H-Leu-NHMec substrate, 1536-well (AID 1619); conditions: recombinant M17LAP, H-Leu-NHMec fluorogenic kinetic assay; at 30 µM; hits give high values;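 further: plate controls were full reaction with DMSO carrier for no effect and no enzyme background for full effect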
Screen size: about 220,000 compounds; about 830 (0.38%) were called active. A selection follows. Potency and affinity values are given separately.

Compound | inhibition (%)
O=C(NCc1ccccn1)c1cc(-c2ccccc2)on1 | 8.29
COc1ccc(C2C(C(=O)N3CCCCC3)c3ccccc3C(=O)N2C)cc1 (stereo unspecified) | -0.86
COc1ccc(Nc2ncc3c(n2)CC(c2ccc(OC)cc2)CC3=O)cc1 (stereo unspecified) | 0.52
CCOC(=O)c1sc(NC(=O)CSc2nc(C)cc(C)n2)c(C#N)c1C | -1.79
Brc1cc2[nH]cnc2c2ccccc12 | 4.81
COCCOC(=O)C1=C(C)NC(=O)NC1c1c(F)cccc1Cl (stereo unspecified) | -12.3
Nc1nc2c(s1)C(=O)CCC2 | 12.6
CCOC(=O)N1CCN(c2cc(N)c([N+](=O)[O-])cc2F)CC1 | -0.96
O=C(Nc1ccccc1NC(=O)c1c(F)c(F)c(F)c(F)c1F)c1c(F)c(F)c(F)c(F)c1F | 8.25
CCCN(c1nc(C)cc(OC)n1)S(=O)(=O)c1ccccc1 | -8.31
Cn1c(SCC(=O)NCCN2C(=O)CSC2=O)nnc1-c1ccccc1 | -14.5
Nc1nc2c(s1)CC(c1ccccc1)CC2 (stereo unspecified) | 18.1
Brc1ccc(/C=N/Nc2ncnc3c2cnn3Cc2ccccc2)cc1 | -4.47
Cc1ccc(S(=O)(=O)CCC(=O)NCc2ccccc2Cl)cc1 | 22.9
O=C(O)/C=C/C(=O)Nc1ccc(Oc2ccccc2)cc1 | -0.33
CC(C)(C)C(=O)N1CCC(O)(CS(=O)(=O)Cc2ccccc2Cl)CC1 | 13.8
Cc1nn(-c2ccccn2)c(N)c1N=O | 13.8
Cc1ccc(-c2ccc(NC(=O)C3C4C=CC(C4)C3C(=O)O)cc2)o1 (stereo unspecified) | 51.5
Cc1ccnc2nc(C(=O)OCCOc3ccc(F)cc3)nn12 | -4.95
CCOc1cc(C(=O)OCC(=O)Nc2cc(C)on2)ccc1OCC(C)C | -3.97
Cc1ccc(NC(=O)c2ccccc2OCC(=O)c2ccccc2)cc1 | 3.34
S=c1[nH]nc(-c2cc(-c3ccccc3)n[nH]2)n1/N=C/c1ccc(Cl)cc1 | 1.35
CSCCC(NS(=O)(=O)c1ccc(Cl)c(Cl)c1)C(=O)O (stereo unspecified) | -4.93
Cc1ccc(-n2nnnc2CN2CCCCC2)cc1 | -0.54
COc1ccc(/C=N/N2CCN(c3ccncc3S(=O)(=O)N3CCCCC3)CC2)cc1 | 0
CCOc1ccccc1N1C(=O)CC(Sc2ncccc2C(=O)O)C1=O (stereo unspecified) | 17.5
O=c1cc(-c2ccc([N+](=O)[O-])cc2)c2cc3c(cc2[nH]1)OCCO3 | 0.51
O=C(CN1C2=NCCCN2c2ccccc21)c1cccs1 | -10.1
CCOC(=O)Cn1nnnc1CN(Cc1ccccc1)Cc1cc2cc(CC)ccc2[nH]c1=O | -7.17
Cc1ccc(-c2cccc(NC(=O)C3C(C(=O)O)[C@@H]4C=C[C@H]3C4)c2)o1 (stereo partly specified) | 22.7
Cc1nc(-c2cccc(Cl)c2)n[nH]1 | -5.31
O=C(O)/C=C\C(=O)Nc1ccc(Oc2ccccc2)cc1 | 15
CC(=O)Nc1cccc(C(=O)/C=C/c2ccco2)c1 | 17.6
COc1ccc(N2C(=O)CC(Sc3n[nH]c(-c4ccccc4)n3)C2=O)cc1 (stereo unspecified) | 16.4
O=C(NNC(=S)NC1CCCCC1)c1sc2ccccc2c1Cl | 13.2
Cc1ccc(-c2nc(N=Nc3ccc(O)cc3)n[nH]2)cc1 | 12.9
CCn1c(-c2cccc(Cl)c2)n[nH]c1=S | 6.53
COC(=O)c1cccc(NC(=O)Cc2nc(-c3ccccc3)sc2-c2ccc(C)cc2)c1 | 1.12
Cc1csc(NC(=O)c2cc(=O)[nH]c3ccc(S(=O)(=O)N4CCOCC4)cc23)n1 | -22.8
COc1ccc(C2CC(=O)c3sc(NC(C)=O)nc3C2)cc1 (stereo unspecified) | -0.56
CC(C)C(=O)Nc1ccc(NC(=O)c2ccccn2)cn1 | 7.94
CCOC(=O)CC(=O)CSc1n[nH]c(=O)[nH]c1=O | -5.31
COc1ccc(CN2C(=O)c3ccccc3C2=O)cc1C(=O)OC(C)C(=O)NC(N)=O (stereo unspecified) | -1.41
CC1=CCC2C(=O)N(c3ccc(Br)cc3C)C(=O)C2C1 (stereo unspecified) | -2.62
Cc1ccc(S(=O)(=O)N2CCCC2C(=O)N2CCCCCC2)cc1 (stereo unspecified) | -4.09
CCn1ccnc1CN(C)Cc1nc(-c2ccc(C(=O)OC)cc2)no1 | 2.83
